Data origin: ChEMBL document CHEMBL3045563

# System: Staphylococcus epidermidis
# protocolDetails: Antibacterial activity against Staphylococcus epidermidis NCIM 2493 assessed as diameter of growth zone inhibition after 24 hr by disk diffusion method; further: test concentration or dose not given here
# Assay type: functional
Listing of recorded diameter of the inhibition zone (DIZ) by entry.

substanceSmiles: C#CCN1C(=O)/C(=N\c2ccc(N3C(=O)c4ccc(Cl)cc4C3=O)c(C)c2)c2cc(OC(F)(F)F)ccc21
diameter of the inhibition zone (DIZ): 10 mm

substanceSmiles: CCCN1C(=O)/C(=N\c2ccc(N3C(=O)c4ccc(Cl)cc4C3=O)c(C)c2)c2cc([N+](=O)[O-])ccc21
diameter of the inhibition zone (DIZ): 12 mm

substanceSmiles: Cc1cc(/N=C2\C(=O)N(S(=O)(=O)C(F)(F)F)c3ccc(OC(F)(F)F)cc32)ccc1N1C(=O)c2ccc(Cl)cc2C1=O
diameter of the inhibition zone (DIZ): 10 mm

substanceSmiles: O=C(O)c1cn(C2CC2)c2cc(N3CCNCC3)c(F)cc2c1=O
diameter of the inhibition zone (DIZ): 28 mm

substanceSmiles: Cc1cc(/N=C2\C(=O)N(Cc3ccccc3)c3ccc([N+](=O)[O-])cc32)ccc1N1C(=O)c2ccc(Cl)cc2C1=O
diameter of the inhibition zone (DIZ): 10 mm

substanceSmiles: Cc1cc(/N=C2\C(=O)Nc3ccc(OC(F)(F)F)cc32)ccc1N1C(=O)c2ccc(Cl)cc2C1=O
diameter of the inhibition zone (DIZ): 18 mm

substanceSmiles: Cc1ccc2c(c1)/C(=N/c1ccc(N3C(=O)c4ccc(Cl)cc4C3=O)c(C)c1)C(=O)N2
diameter of the inhibition zone (DIZ): 10 mm

###

# Test system: Staphylococcus aureus
# protocolDetails: Antibacterial activity against Staphylococcus aureus NCIM 2079 assessed as diameter of growth zone inhibition after 24 hr by disk diffusion method; further: test concentration or dose not given here
# Format: functional
assayReadout: diameter of the inhibition zone (DIZ) (mm)

substanceSmiles: Cc1cc(/N=C2\C(=O)N(S(=O)(=O)c3ccc([N+](=O)[O-])cc3)c3ccc(OC(F)(F)F)cc32)ccc1N1C(=O)c2ccc(Cl)cc2C1=O
readingUnit: mm
measuredValue: 20
--
substanceSmiles: Cc1cc(/N=C2\C(=O)N(S(=O)(=O)C(F)(F)F)c3ccc(OC(F)(F)F)cc32)ccc1N1C(=O)c2ccc(Cl)cc2C1=O
readingUnit: mm
measuredValue: 18
--
substanceSmiles: C#CCN1C(=O)/C(=N\c2ccc(N3C(=O)c4ccc(Cl)cc4C3=O)c(C)c2)c2cc(OC(F)(F)F)ccc21
readingUnit: mm
measuredValue: 10
--
substanceSmiles: Cc1ccc2c(c1)/C(=N/c1ccc(N3C(=O)c4ccc(Cl)cc4C3=O)c(C)c1)C(=O)N2
readingUnit: mm
measuredValue: 20
--
substanceSmiles: Cc1cc(/N=C2\C(=O)Nc3ccc([N+](=O)[O-])cc32)ccc1N1C(=O)c2ccc(Cl)cc2C1=O
readingUnit: mm
measuredValue: 20
--
substanceSmiles: CCCN1C(=O)/C(=N\c2ccc(N3C(=O)c4ccc(Cl)cc4C3=O)c(C)c2)c2cc([N+](=O)[O-])ccc21
readingUnit: mm
measuredValue: 10
--
substanceSmiles: Cc1cc(/N=C2\C(=O)N(S(=O)(=O)c3ccc([N+](=O)[O-])cc3)c3ccc([N+](=O)[O-])cc32)ccc1N1C(=O)c2ccc(Cl)cc2C1=O
readingUnit: mm
measuredValue: 18

###

# System: Staphylococcus epidermidis
# protocolDetails: Antibacterial activity against Staphylococcus epidermidis NCIM 2493 assessed as growth inhibition after 48 hr by NCCLS broth dilution method
# Assay type: functional
# testConditions: NCIM 2493, 48 h

substanceSmiles: Cc1cc(/N=C2\C(=O)Nc3ccc([N+](=O)[O-])cc32)ccc1N1C(=O)c2ccc(Cl)cc2C1=O
readingUnit: µg/mL
MIC: 10
//
substanceSmiles: Cc1cc(/N=C2\C(=O)N(S(=O)(=O)C(F)(F)F)c3ccc(OC(F)(F)F)cc32)ccc1N1C(=O)c2ccc(Cl)cc2C1=O
readingUnit: µg/mL
MIC: 15
//
substanceSmiles: Cc1cc(/N=C2\C(=O)N(Cc3ccccc3)c3ccc([N+](=O)[O-])cc32)ccc1N1C(=O)c2ccc(Cl)cc2C1=O
readingUnit: µg/mL
MIC: 15
//
substanceSmiles: Cc1cc(/N=C2\C(=O)N(S(=O)(=O)c3ccc([N+](=O)[O-])cc3)c3ccc(OC(F)(F)F)cc32)ccc1N1C(=O)c2ccc(Cl)cc2C1=O
readingUnit: µg/mL
MIC: 10
//
substanceSmiles: Cc1cc(/N=C2\C(=O)N(S(C)(=O)=O)c3ccc(OC(F)(F)F)cc32)ccc1N1C(=O)c2ccc(Cl)cc2C1=O
readingUnit: µg/mL
MIC: 10
//
substanceSmiles: Cc1ccc2c(c1)/C(=N/c1ccc(N3C(=O)c4ccc(Cl)cc4C3=O)c(C)c1)C(=O)N2
readingUnit: µg/mL
MIC: 15
//
substanceSmiles: C#CCN1C(=O)/C(=N\c2ccc(N3C(=O)c4ccc(Cl)cc4C3=O)c(C)c2)c2cc(OC(F)(F)F)ccc21
readingUnit: µg/mL
MIC: 15

###

Listing of recorded MIC by entry.
# Tested on: Escherichia coli
# protocolDetails: Antibacterial activity against Escherichia coli NCIM 2065 assessed as growth inhibition after 48 hr by NCCLS broth dilution method
# Assay type: functional
# testConditions: NCIM 2065, 48 h
assayReadout: MIC

substanceSmiles: Cc1cc(/N=C2\C(=O)N(S(=O)(=O)c3ccc([N+](=O)[O-])cc3)c3ccc(OC(F)(F)F)cc32)ccc1N1C(=O)c2ccc(Cl)cc2C1=O
testedTarget: Escherichia coli
measuredValue: 10 µg/mL

substanceSmiles: Cc1cc(/N=C2\C(=O)N(S(C)(=O)=O)c3ccc(OC(F)(F)F)cc32)ccc1N1C(=O)c2ccc(Cl)cc2C1=O
testedTarget: Escherichia coli
measuredValue: 10 µg/mL

substanceSmiles: Cc1cc(/N=C2\C(=O)N(S(=O)(=O)C(F)(F)F)c3ccc(OC(F)(F)F)cc32)ccc1N1C(=O)c2ccc(Cl)cc2C1=O
testedTarget: Escherichia coli
measuredValue: 10 µg/mL

substanceSmiles: Cc1cc(/N=C2\C(=O)N(Cc3ccccc3)c3ccc([N+](=O)[O-])cc32)ccc1N1C(=O)c2ccc(Cl)cc2C1=O
testedTarget: Escherichia coli
measuredValue: 15 µg/mL

substanceSmiles: C#CCN1C(=O)/C(=N\c2ccc(N3C(=O)c4ccc(Cl)cc4C3=O)c(C)c2)c2cc([N+](=O)[O-])ccc21
testedTarget: Escherichia coli
measuredValue: 15 µg/mL

substanceSmiles: Cc1cc(/N=C2\C(=O)N(S(=O)(=O)c3ccc([N+](=O)[O-])cc3)c3ccc([N+](=O)[O-])cc32)ccc1N1C(=O)c2ccc(Cl)cc2C1=O
testedTarget: Escherichia coli
measuredValue: 10 µg/mL

substanceSmiles: Cc1ccc2c(c1)/C(=N/c1ccc(N3C(=O)c4ccc(Cl)cc4C3=O)c(C)c1)C(=O)N2
testedTarget: Escherichia coli
measuredValue: 20 µg/mL

substanceSmiles: Cc1cc(/N=C2\C(=O)N(S(C)(=O)=O)c3ccc([N+](=O)[O-])cc32)ccc1N1C(=O)c2ccc(Cl)cc2C1=O
testedTarget: Escherichia coli
measuredValue: 10 µg/mL

substanceSmiles: CCCN1C(=O)/C(=N\c2ccc(N3C(=O)c4ccc(Cl)cc4C3=O)c(C)c2)c2cc([N+](=O)[O-])ccc21
testedTarget: Escherichia coli
measuredValue: 20 µg/mL

substanceSmiles: Cc1cc(/N=C2\C(=O)Nc3ccc([N+](=O)[O-])cc32)ccc1N1C(=O)c2ccc(Cl)cc2C1=O
testedTarget: Escherichia coli
measuredValue: 10 µg/mL

substanceSmiles: C#CCN1C(=O)/C(=N\c2ccc(N3C(=O)c4ccc(Cl)cc4C3=O)c(C)c2)c2cc(OC(F)(F)F)ccc21
testedTarget: Escherichia coli
measuredValue: 20 µg/mL
